Data provenance is the SangsterLogP compilation.

# experimental.protocol: method code SF-AS, from DOI: 10.1021/jm00326a002, PMID: 14332653
logP by entry:

{"smiles.str": "c1ccc2ncccc2c1", "logP": 2.03}
{"smiles.str": "NC(=O)CCc1ccccc1", "logP": 0.91}
{"smiles.str": "CC(=O)OCCc1ccccc1", "logP": 2.3}
{"smiles.str": "COC(=O)CCc1ccccc1", "logP": 2.32}
{"smiles.str": "BrCCc1ccccc1", "logP": 3.09}
{"smiles.str": "CC(=O)Cc1ccccc1", "logP": 1.44}
{"smiles.str": "BrCCCc1ccccc1", "logP": 3.72}
{"smiles.str": "N#CCCc1ccccc1", "logP": 1.72}
{"smiles.str": "FCCCc1ccccc1", "logP": 2.95}
{"smiles.str": "COC(=O)Cc1ccccc1", "logP": 1.83}
{"smiles.str": "N#CCCCc1ccccc1", "logP": 2.21}
{"smiles.str": "COC(=O)CCCc1ccccc1", "logP": 2.77}
{"smiles.str": "NC(=O)CCCc1ccccc1", "logP": 1.41}
{"smiles.str": "C#Cc1ccccc1", "logP": 2.53}
{"smiles.str": "CN(C)CCCc1ccccc1", "logP": 2.73}
{"smiles.str": "CC(=O)CCCc1ccccc1", "logP": 2.42}
{"smiles.str": "C=CCCC(C)=O", "logP": 1.02}
{"smiles.str": "CCCCSC#N", "logP": 2.03}
{"smiles.str": "ClCCc1ccccc1", "logP": 2.95}
{"smiles.str": "COCCCc1ccccc1", "logP": 2.7}
